B1: Homeobox protein SIX3, residues 212 to 262; numbered along this chain, O95343 (parent)
chain: CFKERTRSLLREWYLQDPYPNPSKKRELAQATGLTPTQVGNWFKNRRQRDR

Variants of: B1
ASSAY_INFO: abundance fitness (aPCA) (normalised: wild type 0, dead -1); higher = more abundant; growth selection in yeast, the domain comes from the species named
EXPERIMENTAL_PARAMETERS: Homo sapiens
Label Criterion met when abundance fitness is at or above -0.8; otherwise label Criterion not met.

Check out these entries, answers already filled in.
INSERT INTO measurements (record_sequence, class_assignment) VALUES
  ('CFKERTRSLLREWYLQDPYPNPSKKRELAQATGLTPTCVGNWFKNRRQRDR [Q38C]', 'Criterion met'),
  ('CFKERTRSLLREWYLQDPYPNPSKKRELDQATGLTPTQVGNWFKNRRQRDR [A29D]', 'Criterion not met'),
  ('CFKERTRSLLREWYLQDPYPNPSKKRELAQATGCTPTQVGNWFKNRRQRDR [L34C]', 'Criterion not met'),
  ('CFKERTRSLLREWYLQDPYPNPSKKRELAQETGLTPTQVGNWFKNRRQRDR [A31E]', 'Criterion met'),
  ('CFKERTRSLLREWYLQDPYPNPSKKRELAQATGLTPTQVNNWFKNRRQRDR [G40N]', 'Criterion met');

Enquiry: Hi, just wondering whether CFKERTRSLLREWYLQDPYPNLSKKRELAQATGLTPTQVGNWFKNRRQRDR [P22L] shows abundance fitness of -0.8 or higher.
Return: Criterion met

Enquiry: Hi, just wondering whether CFKERTRSLLREWYLQDPYPNPSKKRELAQATGWTPTQVGNWFKNRRQRDR [L34W] shows abundance fitness of -0.8 or higher.
Return: Criterion met

Enquiry: Hi, just wondering whether CFKERTRSLLREWYLQDPYPNPSKKRELAQATGLTPTQTGNWFKNRRQRDR [V39T] shows abundance fitness of -0.8 or higher.
Return: Criterion met
